testedOn: recombinant GST fusion MALT1 (human MALT1) (Homo sapiens (Human))
procedureText: Evaluation of inhibition of protease activity of MALT1 (cleavage of fluorescent peptide substrate Ac-LRSR-AMC)
Assay type: biochemical
studyConditions: substrate Ac-LRSR-AMC 20 μmol/L, 30° C. for 80 minutes
Experimental: The guanidine derivative (I) or the pharmacologically acceptable salt thereof was evaluated for its inhibition of the protease activity of MALT1 in an in vitro experimental system in accordance with the method described in the literature (Cancer Cell, 2012, Vol. 22, p. 825-837). […] The fluorescence value of the first measurement was defined as “F1”, and the fluorescence value of the second measurement was defined as “F2”. […]
Where a name gives a salt, the structure may show the parent alone.
Give pIC50 for every item shown.
Please note pIC50 is a logarithmic value: minus log10 of concentration in mol/L. Answer with that number alone.

Q: Which pIC50 value belongs to Cc1ccc(-c2cc(CN/C(N)=N/S(=O)(=O)c3ccccc3)cnc2-c2ccc(Cl)cc2)cc1 ?
Result: 6.22

Q: Which pIC50 value belongs to CCOC(=O)/N=C(\N)NCc1cnc(-c2ccc(Cl)cc2)c(-c2ccc(Cl)cc2)c1 [Compound of Example 81, Hydrochloride] ?
Result: 6.27

Q: Which pIC50 value belongs to NN/C(=N\S(=O)(=O)c1ccccc1)NCc1cnc(-c2ccc(Cl)cc2)c(-c2ccc(Cl)cc2)c1 ?
Result: 7.05

Q: Which pIC50 value belongs to O=S(=O)(/N=C(\NO)NCc1cnc(-c2ccc(Cl)cc2)c(-c2ccc(Cl)cc2)c1)c1ccccc1 ?
Result: 6.97

Q: Which pIC50 value belongs to Cc1nc(-c2ccc(Cl)cc2)c(-c2ccc(Cl)cc2)cc1CN/C(N)=N/S(=O)(=O)c1ccccc1 ?
Result: 6.63

Q: Which pIC50 value belongs to CCCCCC(=O)/N=C(\N)NCc1cnc(-c2ccc(Cl)cc2)c(-c2ccc(Cl)cc2)c1 ?
Result: 6.34

Q: Which pIC50 value belongs to N/C(=N\C(=O)C1CCC(F)(F)CC1)NCc1cnc(-c2ccc(Cl)cc2)c(-c2ccc(Cl)cc2)c1 ?
Result: 6.43

---

testedOn: recombinant GST fusion MALT1 (human MALT1) (Homo sapiens (Human))
procedureText: Evaluation of inhibition of protease activity of MALT1 (cleavage of fluorescent peptide substrate Ac-LRSR-AMC)
studyConditions: substrate Ac-LRSR-AMC 20 μmol/L, 30° C. for 80 minutes
Structures can show the parent of a compound that is named as a salt.
Give pIC50 for every item shown.
Please note pIC50 is a logarithmic value: minus log10 of concentration in mol/L. Answer with that number alone.

Q: Which pIC50 value belongs to N/C(=N\S(=O)(=O)C1CCCC1)NCc1cnc(-c2ccc(Cl)cc2)c(-c2ccc(Cl)cc2)c1 ?
Result: 6.29

Q: Which pIC50 value belongs to N/C(=N\C(=O)Cc1ccccc1)NCc1cnc(-c2ccc(Cl)cc2)c(-c2ccc(Cl)cc2)c1 ?
Result: 6.45

Q: Which pIC50 value belongs to COc1ccc(-c2cc(CN/C(N)=N/S(=O)(=O)c3ccccc3)cnc2-c2ccc(C)cc2)cc1 ?
Result: 6.85

Q: Which pIC50 value belongs to N/C(=N\S(=O)(=O)c1ccco1)NCc1cnc(-c2ccc(Cl)cc2)c(-c2ccc(Cl)cc2)c1 ?
Result: 6.99

Q: Which pIC50 value belongs to COc1ccc(-c2cc(CN/C(N)=N/S(=O)(=O)c3ccccc3)cnc2-c2ccc(Cl)cc2)cc1 ?
Result: 7.62

Q: Which pIC50 value belongs to Cc1ccc(-c2ncc(CN/C(N)=N/S(=O)(=O)c3cccs3)cc2-c2ccc(C(F)(F)F)cc2)cc1 [Compound of Example 33, Hydrochloride] ?
Result: 5.68

Q: Which pIC50 value belongs to N/C(=N\S(=O)(=O)C1CC1)NCc1cnc(-c2ccc(Cl)cc2)c(-c2ccc(Cl)cc2)c1 ?
Result: 6.13

---

Give pIC50 for every item shown.
testedOn: recombinant GST fusion MALT1 (human MALT1) (Homo sapiens (Human), UniProt Q9UDY8)
Sequence (Q9UDY8 whole entry, the tested form may be a part): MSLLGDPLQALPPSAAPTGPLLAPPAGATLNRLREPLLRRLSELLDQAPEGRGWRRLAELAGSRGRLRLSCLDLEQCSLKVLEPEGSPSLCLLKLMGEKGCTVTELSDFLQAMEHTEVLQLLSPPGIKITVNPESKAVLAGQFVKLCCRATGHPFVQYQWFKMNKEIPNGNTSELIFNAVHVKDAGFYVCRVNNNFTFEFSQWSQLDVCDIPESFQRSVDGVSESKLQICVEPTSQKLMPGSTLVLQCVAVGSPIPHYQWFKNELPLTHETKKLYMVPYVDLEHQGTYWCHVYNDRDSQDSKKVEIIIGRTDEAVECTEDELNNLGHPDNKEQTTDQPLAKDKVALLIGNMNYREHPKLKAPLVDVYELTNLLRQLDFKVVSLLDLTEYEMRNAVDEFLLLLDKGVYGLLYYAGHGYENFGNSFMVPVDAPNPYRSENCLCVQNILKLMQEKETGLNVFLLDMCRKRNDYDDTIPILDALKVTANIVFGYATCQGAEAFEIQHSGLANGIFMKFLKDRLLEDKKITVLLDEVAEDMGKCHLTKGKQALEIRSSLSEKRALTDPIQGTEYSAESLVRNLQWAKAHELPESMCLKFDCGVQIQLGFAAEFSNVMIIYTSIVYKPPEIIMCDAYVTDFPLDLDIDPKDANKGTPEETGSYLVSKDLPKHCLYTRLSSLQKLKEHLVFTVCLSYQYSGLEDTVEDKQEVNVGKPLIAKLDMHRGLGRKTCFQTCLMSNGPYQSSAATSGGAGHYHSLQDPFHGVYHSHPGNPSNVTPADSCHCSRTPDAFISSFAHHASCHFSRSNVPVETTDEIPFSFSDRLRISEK
procedureText: Evaluation of inhibition of protease activity of MALT1 (cleavage of fluorescent peptide substrate Ac-LRSR-AMC)
studyConditions: substrate Ac-LRSR-AMC 20 μmol/L, 30° C. for 80 minutes
Please note pIC50 is a logarithmic value: minus log10 of concentration in mol/L. Answer with that number alone.

Q: Which pIC50 value belongs to COc1ccc(C(=O)/N=C(\N)NCc2cnc(-c3ccc(Cl)cc3)c(-c3ccc(Cl)cc3)c2)cc1 ?
Result: 6.11

Q: Which pIC50 value belongs to N/C(=N\S(=O)(=O)c1ccccc1)NCc1cnc(-c2cccc(Cl)c2)c(-c2ccc(Cl)cc2)c1 ?
Result: 5.85

Q: Which pIC50 value belongs to COc1nc(-c2ccc(Cl)cc2)c(-c2ccc(Cl)cc2)cc1CN/C(N)=N/S(=O)(=O)c1ccccc1 ?
Result: 6.98

Q: Which pIC50 value belongs to N/C(=N\S(=O)(=O)C1CCCCC1)NCc1cnc(-c2ccc(Cl)cc2)c(-c2ccc(Cl)cc2)c1 ?
Result: 6.37

---

testedOn: recombinant GST fusion MALT1 (human MALT1) (Homo sapiens (Human), UniProt Q9UDY8)
procedureText: Evaluation of inhibition of protease activity of MALT1 (cleavage of fluorescent peptide substrate Ac-LRSR-AMC)
Assay type: biochemical
studyConditions: substrate Ac-LRSR-AMC 20 μmol/L, 30° C. for 80 minutes
Give pIC50 for every item shown.
Please note pIC50 is a logarithmic value: minus log10 of concentration in mol/L. Answer with that number alone.

Q: Which pIC50 value belongs to N/C(=N\C(=O)CCc1ccccc1)NCc1cnc(-c2ccc(Cl)cc2)c(-c2ccc(Cl)cc2)c1 [Compound of Example 74] ?
Result: 6.53

Q: Which pIC50 value belongs to N/C(=N\C(=O)c1ccco1)NCc1cnc(-c2ccc(Cl)cc2)c(-c2ccc(Cl)cc2)c1 [Compound of Example 78] ?
Result: 6.12

Q: Which pIC50 value belongs to CN/C(=N\S(=O)(=O)c1ccccc1)NCc1cnc(-c2ccc(Cl)cc2)c(-c2ccc(Cl)cc2)c1 [Compound of Example 40] ?
Result: 7.43

Q: Which pIC50 value belongs to COc1ccc(-c2ncc(CN/C(N)=N/S(=O)(=O)c3ccccc3)cc2-c2ccc(Cl)cc2)cc1 [Compound of Example 6] ?
Result: 6.30

---

testedOn: recombinant GST fusion MALT1 (human MALT1) (Homo sapiens (Human))
procedureText: Evaluation of inhibition of protease activity of MALT1 (cleavage of fluorescent peptide substrate Ac-LRSR-AMC)
studyConditions: substrate Ac-LRSR-AMC 20 μmol/L, 30° C. for 80 minutes
measurementKind: IC50 (nM)
Write the value in nM as a bare number.

Q: Which IC50 value belongs to N/C(=N\S(=O)(=O)c1ccccc1)NCc1cnc(-c2ccc(Cl)cc2F)c(-c2ccc(Cl)cc2)c1 ?
Result: 237

Q: Which IC50 value belongs to N/C(=N\S(=O)(=O)c1ccc(Cl)s1)NCc1cnc(-c2ccc(Cl)cc2)c(-c2ccc(Cl)cc2)c1 ?
Result: 169

Q: Which IC50 value belongs to CC(C)(C(=O)/N=C(\N)NCc1cnc(-c2ccc(Cl)cc2)c(-c2ccc(Cl)cc2)c1)c1ccccc1 ?
Result: 880

---

testedOn: recombinant GST fusion MALT1 (human MALT1) (Homo sapiens (Human), UniProt Q9UDY8)
procedureText: Evaluation of inhibition of protease activity of MALT1 (cleavage of fluorescent peptide substrate Ac-LRSR-AMC)
studyConditions: substrate Ac-LRSR-AMC 20 μmol/L, 30° C. for 80 minutes
measurementKind: pIC50
Please note pIC50 is a logarithmic value: minus log10 of concentration in mol/L. Answer with that number alone.

Q: Give pIC50 (recombinant GST fusion MALT1 (human MALT1) (Homo sapiens (Human), UniProt Q9UDY8)) of the following compound: N/C(=N\S(=O)(=O)c1ccccc1)NCc1cc(-c2ccc(Cl)cc2)c(-c2ccc(Cl)cc2)nc1O [Compound of Example 91]
Result: 6.95

Q: Give pIC50 (recombinant GST fusion MALT1 (human MALT1) (Homo sapiens (Human), UniProt Q9UDY8)) of the following compound: CN(C)S(=O)(=O)/N=C(\N)NCc1cnc(-c2ccc(Cl)cc2)c(-c2ccc(Cl)cc2)c1 [Compound of Example 60]
Result: 5.88

Q: Give pIC50 (recombinant GST fusion MALT1 (human MALT1) (Homo sapiens (Human), UniProt Q9UDY8)) of the following compound: CCOc1cccc(S(=O)(=O)/N=C(\N)NCc2cnc(-c3ccc(Cl)cc3)c(-c3ccc(Cl)cc3)c2)c1 [Compound of Example 51]
Result: 6.73

Q: Give pIC50 (recombinant GST fusion MALT1 (human MALT1) (Homo sapiens (Human), UniProt Q9UDY8)) of the following compound: N/C(=N\S(=O)(=O)c1ccccc1)NCc1cnc(-c2ccc(Cl)cc2)c(-c2ccc(C(F)(F)F)cc2)c1 [Compound of Example 21]
Result: 5.99

Q: Give pIC50 (recombinant GST fusion MALT1 (human MALT1) (Homo sapiens (Human), UniProt Q9UDY8)) of the following compound: N/C(=N\S(=O)(=O)c1ccccc1)NCc1cnc(-c2ccc(Cl)cc2)c(-c2cccc(Cl)c2)c1 [Compound of Example 15]
Result: 6.51

Q: Give pIC50 (recombinant GST fusion MALT1 (human MALT1) (Homo sapiens (Human), UniProt Q9UDY8)) of the following compound: CC(N/C(N)=N/S(=O)(=O)c1ccccc1)c1cnc(-c2ccc(Cl)cc2)c(-c2ccc(Cl)cc2)c1 (centres unmarked) [Compound of Example 46]
Result: 6.27

Q: Give pIC50 (recombinant GST fusion MALT1 (human MALT1) (Homo sapiens (Human), UniProt Q9UDY8)) of the following compound: Cn1cc(S(=O)(=O)/N=C(\N)NCc2cnc(-c3ccc(Cl)cc3)c(-c3ccc(Cl)cc3)c2)cn1 [Compound of Example 53]
Result: 5.70

Q: Give pIC50 (recombinant GST fusion MALT1 (human MALT1) (Homo sapiens (Human), UniProt Q9UDY8)) of the following compound: N/C(=N\C(=O)c1ccccc1)NCc1cnc(-c2ccc(Cl)cc2)c(-c2ccc(Cl)cc2)c1 [Compound of Example 34]
Result: 6.09
